B1: library; numbered along this chain (parent)
chain: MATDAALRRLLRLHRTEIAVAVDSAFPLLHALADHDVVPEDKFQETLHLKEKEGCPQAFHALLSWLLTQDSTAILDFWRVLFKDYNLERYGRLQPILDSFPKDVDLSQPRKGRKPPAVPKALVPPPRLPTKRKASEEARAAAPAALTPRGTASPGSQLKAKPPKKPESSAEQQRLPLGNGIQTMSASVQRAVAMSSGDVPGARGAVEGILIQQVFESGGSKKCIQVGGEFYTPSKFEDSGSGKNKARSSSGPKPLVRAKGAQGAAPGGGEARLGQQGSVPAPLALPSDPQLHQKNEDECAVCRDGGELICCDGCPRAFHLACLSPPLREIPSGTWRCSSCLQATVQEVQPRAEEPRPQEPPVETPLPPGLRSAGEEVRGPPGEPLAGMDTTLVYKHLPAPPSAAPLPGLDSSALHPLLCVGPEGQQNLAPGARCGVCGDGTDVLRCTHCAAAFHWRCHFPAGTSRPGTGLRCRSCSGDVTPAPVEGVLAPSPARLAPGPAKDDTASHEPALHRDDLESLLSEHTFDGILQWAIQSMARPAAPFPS

- Variants of: B1
- Protocol Text: AIRE transcriptional activation functional score (insulin promoter-GFP; nonsense median 0, synonymous median 1) (normalised score); higher = higher AIRE activity (more reporter activation)
- Experimental Conditions: with insulin promoter-GFP reporter in HEK293
Assay Readout: AIRE transcriptional activation functional score

variant_spec=A540L number=0.964
variant_spec=D34W number=-0.393
variant_spec=R12H number=-0.211
variant_spec=A429C number=0.771
variant_spec=P422Q number=0.91
variant_spec=S107D number=0.707
variant_spec=L122M number=1.1
variant_spec=G268Y number=0.298
variant_spec=G112Q number=1.37
variant_spec=P280R number=1.01
variant_spec=L470I number=0.814
variant_spec=T46D number=-0.445
variant_spec=L370E number=-0.238
variant_spec=E522I number=0.133
variant_spec=F236Y number=0.564
variant_spec=R92S number=0.275
variant_spec=D34H number=1.62
variant_spec=P315G number=0.618
variant_spec=P282L number=1.31
variant_spec=L93R number=0.0258
variant_spec=I18C number=-0.426
variant_spec=C310R number=0.907
variant_spec=A73S number=0.179
variant_spec=S196M number=0.982
variant_spec=K243I number=1.02
variant_spec=A373H number=1.23
variant_spec=A413L number=1.43
variant_spec=E376S number=1.08
variant_spec=K120N number=1.29
variant_spec=S474H number=0.593
variant_spec=V256T number=0.8
variant_spec=L511R number=0.813
variant_spec=K120Q number=0.232
variant_spec=G374P number=1.1
variant_spec=G486P number=1
variant_spec=L488K number=1.07
variant_spec=M536W number=0.508
variant_spec=T480W number=1.13
variant_spec=Q173P number=1.05
variant_spec=T344W number=1.1
variant_spec=F26L number=-0.13
variant_spec=K164P number=1.62
variant_spec=L323D number=1.16
variant_spec=V484Q number=1.72
variant_spec=R174I number=0.22
variant_spec=G178C number=1.22
variant_spec=A510Q number=0.851
variant_spec=L93H number=-0.023
variant_spec=S521R number=0.245
variant_spec=P109Q number=0.797
variant_spec=P542G number=0.957
variant_spec=P27F number=-0.037
variant_spec=H448Q number=1.05
variant_spec=E229C number=0.0314
variant_spec=L323N number=0.866
variant_spec=V436H number=0.883
variant_spec=C311H number=1.01
variant_spec=L177R number=0.707
variant_spec=P331L number=0.9
variant_spec=S412M number=1.3
variant_spec=G431M number=0.776
variant_spec=A258G number=0.943
variant_spec=A121T number=0.322
variant_spec=S71C number=0.858
variant_spec=R127P number=0.804
variant_spec=P154F number=1.89
variant_spec=R445F number=0.192
variant_spec=G382S number=0.979
variant_spec=L63Y number=-0.421
variant_spec=G477D number=0.678
variant_spec=V362Y number=1.31
variant_spec=A264C number=0.799
